Data credit: the kinase profiling compilation of Christmann-Franck et al. (2016)

- TEST TARGET: TGFBR1 (human) (UniProt P36897)
- Sequence (P36897 whole entry, looked up): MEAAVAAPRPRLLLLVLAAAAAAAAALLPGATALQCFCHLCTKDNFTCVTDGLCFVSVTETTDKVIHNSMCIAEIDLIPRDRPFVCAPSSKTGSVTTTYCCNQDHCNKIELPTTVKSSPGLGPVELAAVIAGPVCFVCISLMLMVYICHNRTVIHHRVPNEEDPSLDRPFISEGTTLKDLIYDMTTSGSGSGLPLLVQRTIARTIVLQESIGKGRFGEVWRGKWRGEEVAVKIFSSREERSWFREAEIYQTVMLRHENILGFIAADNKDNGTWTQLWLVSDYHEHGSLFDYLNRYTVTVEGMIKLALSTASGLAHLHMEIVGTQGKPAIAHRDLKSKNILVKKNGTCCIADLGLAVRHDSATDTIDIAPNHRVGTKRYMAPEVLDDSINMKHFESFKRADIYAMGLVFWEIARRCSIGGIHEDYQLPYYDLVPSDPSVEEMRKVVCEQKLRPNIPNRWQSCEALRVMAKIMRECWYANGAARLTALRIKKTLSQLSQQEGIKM
- EXPERIMENT NOTES: KINOMEscan competition binding
- CONDITION DESCRIPTION: compound 10.0 µM
ENDPOINT NAME: kinase still bound, per cent of control (%)

COMPOUND: N#Cc1cc(-c2ccnc(Nc3ccc(-n4cnc(-c5cccnc5)n4)cc3)n2)cc(N2CCOCC2)c1
TEST TARGET: TGFBR1 (human) (UniProt P36897)
RECORDED RESULT: 73
//
COMPOUND: CCCS(=O)(=O)Nc1ccc(F)c(C(=O)c2c[nH]c3ncc(Cl)cc23)c1F
TEST TARGET: TGFBR1 (human) (UniProt P36897)
RECORDED RESULT: 60
//
COMPOUND: CCN(CCO)CCCOc1ccc2c(Nc3cc(CC(=O)Nc4cccc(F)c4)[nH]n3)ncnc2c1
TEST TARGET: TGFBR1 (human) (UniProt P36897)
RECORDED RESULT: 98
//
COMPOUND: C=CC(=O)Nc1ccc(C(=O)c2sc(Nc3ccc(N4CCN(C)CC4)cc3OC)nc2N)cc1
TEST TARGET: TGFBR1 (human) (UniProt P36897)
RECORDED RESULT: 96
//
COMPOUND: COc1cc2c(Nc3ccc(NC(=O)c4ccccc4)cc3)ncnc2cc1OCCCN1CCOCC1
TEST TARGET: TGFBR1 (human) (UniProt P36897)
RECORDED RESULT: 100
//
COMPOUND: COc1cc2ncnc(Nc3cccc(Cl)c3)c2cc1OC
TEST TARGET: TGFBR1 (human) (UniProt P36897)
RECORDED RESULT: 88
//
COMPOUND: CCN1CCN(Cc2ccc(NC(=O)c3ccc(C)c(/C=C/c4cnc5[nH]ccc5c4OC)c3)cc2C(F)(F)F)CC1
TEST TARGET: TGFBR1 (human) (UniProt P36897)
RECORDED RESULT: 100
//
COMPOUND: CC1=C(C(=O)Nc2cc3cn[nH]c3cc2F)C(c2ccc(C(F)(F)F)cc2)CC(=O)N1 (stereo not drawn)
TEST TARGET: TGFBR1 (human) (UniProt P36897)
RECORDED RESULT: 100

###

- TEST TARGET: ABL2 (human)
- EXPERIMENT NOTES: KINOMEscan competition binding
- CONDITION DESCRIPTION: compound 10.0 µM

COMPOUND: O=c1[nH]c2ccccc2n1C1CCN(Cc2ccc(-c3nc4cc5[nH]cnc5cc4nc3-c3ccccc3)cc2)CC1
TEST TARGET: ABL2 (human)
kinase still bound, per cent of control, %: 100
--
COMPOUND: C=CC(=O)Nc1ccc(C(=O)c2sc(Nc3ccc(N4CCN(C)CC4)cc3OC)nc2N)cc1
TEST TARGET: ABL2 (human)
kinase still bound, per cent of control, %: 100
--
COMPOUND: CC1=C(C(=O)Nc2cc3cn[nH]c3cc2F)C(c2ccc(C(F)(F)F)cc2)CC(=O)N1 (centres undefined)
TEST TARGET: ABL2 (human)
kinase still bound, per cent of control, %: 86
--
COMPOUND: COc1cc(C)c(Sc2cnc(NC(=O)c3ccc(CNC(C)C(C)C)cc3)s2)cc1C(=O)N1CCN(C(C)=O)CC1 (centres undefined)
TEST TARGET: ABL2 (human)
kinase still bound, per cent of control, %: 100
